# target.system: Leukocyte tyrosine kinase receptor (Homo sapiens);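 also: each value is the mean inhibition of LTK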
# measurement.context: at 1 µM
result.type: inhibition (%)

>>> reported_value("COc1cc(Nc2ncc(-c3ccccc3)o2)cc(OC)c1OC")
1.47
>>> reported_value("CCc1cccc(CC)c1/C=C/c1cncc(C(=O)NC)c1")
0.4
>>> reported_value("O=C1NC(=O)C(c2cccc(Cl)c2)=C1Nc1ccc(Cl)c(C(=O)O)c1")
2.96
>>> reported_value("c1ccc(-c2n[nH]cc2-c2ccnc(-c3ccc(OCCN4CCOCC4)cc3)c2)nc1")
-0.95
>>> reported_value("C/C(Nc1ccc(S(N)(=O)=O)cc1)=C1/C(=O)Nc2ccccc21")
9.41
>>> reported_value("COc1cc2ncn(-c3cc(OCCc4ccccc4)c(C(N)=O)s3)c2cc1OC")
1.98
>>> reported_value("Cc1nnc(-c2ccc(C)c(-c3ccc(C(=O)NCc4ccc(Cl)cc4)cc3)c2)o1")
4.02
>>> reported_value("C[C@@H](Oc1cc(-n2cnc3ccc(OC4CCN(C)CC4)cc32)sc1C(N)=O)c1ccccc1Cl")
4.72
>>> reported_value("CNC(=O)c1cncc(/C=C/c2c(C)cccc2C)c1")
-0.39
>>> reported_value("O=C1Nc2ccc(I)cc2C1=Cc1cc(Br)c(O)c(Br)c1")
9.99
>>> reported_value("Nc1nccc(-c2c(-c3ccc(F)cc3)ncn2C2CCC(O)CC2)n1 (stereo not drawn)")
0.8
>>> reported_value("N#Cc1ccc(Oc2nccc(-c3c(-c4ccc(F)cc4)ncn3C3CCNCC3)n2)cc1")
5.69
>>> reported_value("NS(=O)(=O)c1ccc(N/N=C2\\C(=O)Nc3ccc(-c4cnco4)cc32)cc1")
3.37
>>> reported_value("CN1CCN(CCCNc2nc3ccc(Oc4ccc(NC(=O)Nc5cc(C(F)(F)F)ccc5F)cc4)cc3[nH]2)CC1")
-0.03
>>> reported_value("NS(=O)(=O)c1ccc(Nc2cc(-c3ccc(O)c(F)c3)n[nH]2)cc1")
0.7
>>> reported_value("CN(C)CCCNc1nccc(-c2c(-c3ccc(F)cc3)nn3cc(C(F)(F)F)ccc23)n1")
1.19
>>> reported_value("Cc1ccc(NC(=O)c2ccoc2)cc1-c1ccc(C(=O)NCC2CC2)cc1")
3.16
>>> reported_value("NC(=O)Cc1ccccc1Oc1nccc(-c2c(-c3ccc(F)cc3)ncn2C2CCNCC2)n1")
2.41

---

# target.system: RAC-alpha serine/threonine-protein kinase (Homo sapiens);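 also: reported values are mean inhibition figures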
# measurement.context: at 0.1 µM
result.type: inhibition (%)

>>> reported_value("CCc1cccc(CC)c1/C=C/c1cncc(C(=O)NC)c1")
0.7
>>> reported_value("O=C1Nc2ccccc2/C1=C/Nc1ccc(-n2cncn2)cc1")
0.19
>>> reported_value("c1ccc(Oc2ccc(Nc3ncc(-c4ccccc4)o3)cc2)cc1")
0.05
>>> reported_value("COC(=O)Nc1nc2ccc(Sc3ccc(NC(=O)Nc4cc(C(F)(F)F)ccc4F)cc3)cc2[nH]1")
0.65
>>> reported_value("NCc1ccc(-n2c(-c3nonc3N)nc3cnccc32)cc1")
3.84
>>> reported_value("COc1cc2ncn(-c3cc(OCCc4ccccc4)c(C(N)=O)s3)c2cc1OC")
0.55
>>> reported_value("Cc1nnc(-c2ccc(C)c(-c3ccc(C(=O)NCc4ccc(Cl)cc4)cc3)c2)o1")
-1.66
>>> reported_value("N#Cc1ccc(Oc2nccc(-c3c(-c4ccc(F)cc4)ncn3C3CCNCC3)n2)cc1")
-0.06
>>> reported_value("c1ccc(-c2n[nH]cc2-c2ccnc(-c3ccc(OCCN4CCOCC4)cc3)c2)nc1")
-0.28
>>> reported_value("Cc1ccc(NC(=O)c2ccoc2)cc1-c1ccc(C(=O)NCC2CC2)cc1")
0.37
